Measurement record for UniProtKB P56524; quantity recorded: IC50.
Sequence (P56524 whole entry): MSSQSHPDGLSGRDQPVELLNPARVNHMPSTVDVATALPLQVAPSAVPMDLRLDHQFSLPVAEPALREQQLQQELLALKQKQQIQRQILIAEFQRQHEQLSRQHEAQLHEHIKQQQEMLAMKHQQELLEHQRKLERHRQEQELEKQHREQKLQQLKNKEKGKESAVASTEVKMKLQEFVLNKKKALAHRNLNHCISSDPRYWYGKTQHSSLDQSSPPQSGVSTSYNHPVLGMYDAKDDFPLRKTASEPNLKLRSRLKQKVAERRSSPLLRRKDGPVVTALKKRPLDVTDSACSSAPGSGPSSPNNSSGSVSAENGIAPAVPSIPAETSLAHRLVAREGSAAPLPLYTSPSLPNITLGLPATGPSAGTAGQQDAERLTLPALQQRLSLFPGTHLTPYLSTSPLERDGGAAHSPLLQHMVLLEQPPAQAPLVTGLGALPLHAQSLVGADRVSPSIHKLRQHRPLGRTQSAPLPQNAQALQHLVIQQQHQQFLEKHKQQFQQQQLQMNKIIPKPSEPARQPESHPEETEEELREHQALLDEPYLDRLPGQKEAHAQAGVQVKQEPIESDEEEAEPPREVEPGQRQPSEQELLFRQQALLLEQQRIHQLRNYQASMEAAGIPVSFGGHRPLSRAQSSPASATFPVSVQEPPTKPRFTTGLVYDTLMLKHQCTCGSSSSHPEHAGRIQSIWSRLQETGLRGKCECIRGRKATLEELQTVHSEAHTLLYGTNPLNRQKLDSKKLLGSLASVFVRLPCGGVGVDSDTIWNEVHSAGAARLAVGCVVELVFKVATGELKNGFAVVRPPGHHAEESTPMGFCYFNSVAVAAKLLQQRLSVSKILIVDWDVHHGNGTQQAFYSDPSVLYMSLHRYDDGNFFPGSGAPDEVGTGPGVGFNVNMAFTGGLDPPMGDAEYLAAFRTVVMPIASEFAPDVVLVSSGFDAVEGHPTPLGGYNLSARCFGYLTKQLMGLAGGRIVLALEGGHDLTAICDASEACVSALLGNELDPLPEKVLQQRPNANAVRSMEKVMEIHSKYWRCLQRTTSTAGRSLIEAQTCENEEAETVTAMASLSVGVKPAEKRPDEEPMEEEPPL
Respond numerically; units are µM and should not be typed.

Record excerpt, results attached:
molecule	subject_of_test	IC50 (µM)
Cc1cccc2c1C1=NCCCN1C(=N)S2 [Compound 13m]	UniProtKB P56524	3.2
N=C1Sc2ccc(Cl)cc2C2=NCCCN12 [Compound 13e]	UniProtKB P56524	5.7
N=C1Sc2cccc(Br)c2C2=NCCCN12 [Compound 13j]	UniProtKB P56524	2.3
N=C1Sc2cc(Br)ccc2C2=NCCCN12 [Compound 13g]	UniProtKB P56524	2
N=C1Sc2c(F)cccc2C2=NCCCN12 [Compound 13h]	UniProtKB P56524	5.1
Cc1ccc2c(c1)SC(=N)N1CCCN=C21 [Compound 13k]	UniProtKB P56524	7.6

(Q) Please provide the recorded IC50 for N=C1Sc2cc(F)ccc2C2=NCCCN12 [Compound 13f] , tested on UniProtKB P56524.
(A) 2.84

(Q) For the record N=C1Sc2ccc(F)cc2C2=NCCCN12 [Compound 13l] , what value of IC50 is listed for UniProtKB P56524?
(A) 2.2

These data points were gathered from patent US20210220370A1.
